Taken from paper PMC4822050.

TARGET_DESC: T1, UHRF1 delta627-674 (human, UniProt Q96T88 1-793, del627-674)
T1 sequence: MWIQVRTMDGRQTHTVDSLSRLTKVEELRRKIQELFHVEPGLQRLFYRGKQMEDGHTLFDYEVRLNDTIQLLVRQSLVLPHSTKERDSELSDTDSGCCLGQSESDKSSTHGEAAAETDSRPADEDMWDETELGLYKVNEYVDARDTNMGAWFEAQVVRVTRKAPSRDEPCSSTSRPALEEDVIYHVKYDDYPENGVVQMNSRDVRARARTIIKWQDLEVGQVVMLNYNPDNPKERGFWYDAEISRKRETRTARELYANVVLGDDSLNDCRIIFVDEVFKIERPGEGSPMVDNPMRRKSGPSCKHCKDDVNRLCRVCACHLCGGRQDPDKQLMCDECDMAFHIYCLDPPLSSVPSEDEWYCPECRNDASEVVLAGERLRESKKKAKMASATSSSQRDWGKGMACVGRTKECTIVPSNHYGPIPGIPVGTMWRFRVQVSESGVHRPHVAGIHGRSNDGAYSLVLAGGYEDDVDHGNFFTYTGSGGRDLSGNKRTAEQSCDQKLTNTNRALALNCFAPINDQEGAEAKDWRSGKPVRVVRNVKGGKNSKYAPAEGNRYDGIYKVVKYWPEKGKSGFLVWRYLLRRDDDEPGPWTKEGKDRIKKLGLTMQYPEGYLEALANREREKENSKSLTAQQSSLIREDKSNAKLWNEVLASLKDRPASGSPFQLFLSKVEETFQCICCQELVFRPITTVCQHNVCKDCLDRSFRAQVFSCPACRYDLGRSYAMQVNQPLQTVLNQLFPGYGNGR
ASSAY_METHOD_TEXT: FP; ITC: 10 mM HEPES pH 8.0, 100 mM NaCl, 18 C; EMSA: 20 mM HEPES pH 7.5, 100 mM NaCl, 8% glycerol, 1 mM DTT, on ice; pull-down: 20 mM HEPES-NaOH pH 8.0, 100 mM NaC
pKd: −log10 of the molar value.
ENDPOINT_LABEL: pKd

binder="FAM-12bp-HM-DNA (dsDNA, 5-methyl-dC at position 6 of strand 2 (GTCAGXGCATGG)) DNA 1: CCATGCGCTGAC DNA 2: GTCAGCGCATGG" assay_result=5.31
